Hello, the source for this data is patent US9234006B2, in case you need it.

System: P. aeruginosa ATCC 9721
Experiment: MIC susceptibility testing, broth microdilution in CaMHB
Format: cell-based, Pseudomonas aeruginosa
Settings: P. aeruginosa ATCC 9721; Table 4
Method: To evaluate the potency and spectrum of the compounds, susceptibility testing was performed against four strains of each of the four Gram negative pathogens, Escherichia coli, Pseudomonas aeruginosa, Klebsiella pneumoniae and Acinetobacter baumannii. The day before testing, 3 to 4 colonies were picked from fresh Mueller-Hinton Agar (MHA) plate and transferred into 10 mL of Cation adjusted MHB (CaMHB). Cultures were incubated at 37° C. […]
Counter-ions that a name gives are not always drawn. Where a SMILES comes first, the peptide text is derived from it. Bridges are numbered along the chain shown (N, C = ends). [ ]: non-standard residue; d: D form. The star is where a group is joined. ξ: configuration not given here. Thr(3ξ) = CC(O)[C@H](N)C(=O)O; Dab = NCC[C@H](N)C(=O)O; X1 = CCCCCCC(O)C(=O)*; Aoc = NCCCCCCCC(=O)O; X2 = NC1CCCC1C(=O)*; X3 = O=C(C1CCNC1)*; GABA = NCCCC(=O)O; βAla = NCCC(=O)O
Recorded MIC by entry
Numbers only; they are read as micrograms/mL.

A selection of reference data follows.
{"compound": "CC(C)C[C@@H]1NC(=O)[C@@H](Cc2ccccc2)NC(=O)[C@H](CCN)NC(=O)[C@@H](NC(=O)[C@H](CCN)NC(=O)[C@@H](NC(=O)C2CCNC2)C(C)O)CCNC(=O)[C@H](C(C)O)NC(=O)[C@H](CCN)NC(=O)[C@H](CCN)NC1=O (stereo partly shown) [Example 13, Sulphate Salt] (X3-[Thr(3ξ)][Dab][Dab][Dab][dF]L[Dab][Dab][Thr(3ξ)]; lactam 3-C)", "tested.target": "P. aeruginosa ATCC 9721", "data.value": 0.125}
{"compound": "CC(C)C[C@@H]1NC(=O)[C@@H](Cc2ccccc2)NC(=O)[C@H](CCN)NC(=O)[C@@H](NC(=O)[C@H](CCN)NC(=O)[C@@H](NC(=O)C2CCCC2N)C(C)O)CCNC(=O)[C@H](C(C)O)NC(=O)[C@H](CCN)NC(=O)[C@H](CCN)NC1=O (stereo partly shown) [Example 11, Sulphate Salt] (X2-[Thr(3ξ)][Dab][Dab][Dab][dF]L[Dab][Dab][Thr(3ξ)]; lactam 3-C)", "tested.target": "P. aeruginosa ATCC 9721", "data.value": 0.25}
{"compound": "CC(C)C[C@@H]1NC(=O)[C@@H](Cc2ccccc2)NC(=O)[C@H](CCN)NC(=O)[C@@H](NC(=O)[C@H](CCN)NC(=O)[C@@H](NC(=O)CCCCCCCN)C(C)O)CCNC(=O)[C@H](C(C)O)NC(=O)[C@H](CCN)NC(=O)[C@H](CCN)NC1=O (stereo partly shown) [Example 9, Sulphate Salt] (H-[Aoc][Thr(3ξ)][Dab][Dab][Dab][dF]L[Dab][Dab][Thr(3ξ)]; lactam 4-C)", "tested.target": "P. aeruginosa ATCC 9721", "data.value": 0.5}
{"compound": "CC(C)C[C@@H]1NC(=O)[C@@H](Cc2ccccc2)NC(=O)[C@H](CCN)NC(=O)[C@@H](NC(=O)[C@H](CCN)NC(=O)[C@@H](NC(=O)CN)C(C)O)CCNC(=O)[C@H](C(C)O)NC(=O)[C@H](CCN)NC(=O)[C@H](CCN)NC1=O (stereo partly shown) [Example 3, Sulphate Salt] (H-G[Thr(3ξ)][Dab][Dab][Dab][dF]L[Dab][Dab][Thr(3ξ)]; lactam 4-C)", "tested.target": "P. aeruginosa ATCC 9721", "data.value": 0.125}
{"compound": "CCCCCCC(O)C(=O)N[C@H](C(=O)N[C@@H](CCN)C(=O)N[C@H]1CCNC(=O)[C@H](C(C)O)NC(=O)[C@H](CCN)NC(=O)[C@H](CCN)NC(=O)[C@H](CC(C)C)NC(=O)[C@@H](Cc2ccccc2)NC(=O)[C@H](CCN)NC1=O)C(C)O (stereo partly shown) [Example 2, Sulphate Salt] (X1-[Thr(3ξ)][Dab][Dab][Dab][dF]L[Dab][Dab][Thr(3ξ)]; lactam 3-C)", "tested.target": "P. aeruginosa ATCC 9721", "data.value": 2}

Simply: CC(C)C[C@@H]1NC(=O)[C@@H](Cc2ccccc2)NC(=O)[C@H](CCN)NC(=O)[C@@H](NC(=O)[C@H](CCN)NC(=O)[C@@H](NC(=O)CCCN)[C@@H](C)O)CCNC(=O)[C@H]([C@@H](C)O)NC(=O)[C@H](CCN)NC(=O)[C@H](CCN)NC1=O [Example 6, Sulphate Salt] (H-[GABA]T[Dab][Dab][Dab][dF]L[Dab][Dab]T; lactam 4-C) , P. aeruginosa ATCC 9721, MIC = 0.125

Simply: CC(C)C[C@@H]1NC(=O)[C@@H](Cc2ccccc2)NC(=O)[C@H](CCN)NC(=O)[C@@H](NC(=O)[C@H](CCN)NC(=O)[C@@H](NC(=O)CCN)C(C)O)CCNC(=O)[C@H](C(C)O)NC(=O)[C@H](CCN)NC(=O)[C@H](CCN)NC1=O (stereo partly shown) [Example 4, Sulphate Salt] (H-[βAla][Thr(3ξ)][Dab][Dab][Dab][dF]L[Dab][Dab][Thr(3ξ)]; lactam 4-C) , P. aeruginosa ATCC 9721, MIC = 0.25

====

Recorded MIC by entry
test system: P. aeruginosa ATCC10145; assay: MIC susceptibility testing, broth microdilution in CaMHB; type: cell-based, Pseudomonas aeruginosa; conditions: Table 4
Where a name gives a salt, the structure may show the parent alone. Where a SMILES comes first, the peptide text is derived from it. Bridges are numbered along the chain shown (N, C = ends). [ ]: non-standard residue; d: D form. The star is where a group is joined. ξ: configuration not given here. Thr(3ξ) = CC(O)[C@H](N)C(=O)O; Dab = NCC[C@H](N)C(=O)O; X1 = CCCCCCC(O)C(=O)*; X6 = O=C(CCCCCCCO)*; X3 = O=C(C1CCNC1)*; GABA = NCCCC(=O)O; βAla = NCCC(=O)O
Numbers only; they are read as micrograms/mL.

A selection of reference data follows.
{"compound": "CC(C)C[C@@H]1NC(=O)[C@@H](Cc2ccccc2)NC(=O)[C@H](CCN)NC(=O)[C@@H](NC(=O)[C@H](CCN)NC(=O)[C@@H](NC(=O)CCN)C(C)O)CCNC(=O)[C@H](C(C)O)NC(=O)[C@H](CCN)NC(=O)[C@H](CCN)NC1=O (stereo partly drawn) [Example 4, Sulphate Salt] (H-[βAla][Thr(3ξ)][Dab][Dab][Dab][dF]L[Dab][Dab][Thr(3ξ)]; lactam 4-C)", "tested.target": "P. aeruginosa ATCC10145", "MIC, micrograms/mL": 0.5}
{"compound": "CC(C)C[C@@H]1NC(=O)[C@@H](Cc2ccccc2)NC(=O)[C@H](CCN)NC(=O)[C@@H](NC(=O)[C@H](CCN)NC(=O)[C@@H](NC(=O)C2CCNC2)C(C)O)CCNC(=O)[C@H](C(C)O)NC(=O)[C@H](CCN)NC(=O)[C@H](CCN)NC1=O (stereo partly drawn) [Example 13, Sulphate Salt] (X3-[Thr(3ξ)][Dab][Dab][Dab][dF]L[Dab][Dab][Thr(3ξ)]; lactam 3-C)", "tested.target": "P. aeruginosa ATCC10145", "MIC, micrograms/mL": 0.5}
{"compound": "CC(C)C[C@@H]1NC(=O)[C@@H](Cc2ccccc2)NC(=O)[C@H](CCN)NC(=O)[C@@H](NC(=O)[C@H](CCN)NC(=O)[C@@H](NC(=O)CCCCCCCO)C(C)O)CCNC(=O)[C@H](C(C)O)NC(=O)[C@H](CCN)NC(=O)[C@H](CCN)NC1=O (stereo partly drawn) [Example 8, Sulphate Salt] (X6-[Thr(3ξ)][Dab][Dab][Dab][dF]L[Dab][Dab][Thr(3ξ)]; lactam 3-C)", "tested.target": "P. aeruginosa ATCC10145", "MIC, micrograms/mL": 2}
{"compound": "CCCCCCC(O)C(=O)N[C@H](C(=O)N[C@@H](CCN)C(=O)N[C@H]1CCNC(=O)[C@H](C(C)O)NC(=O)[C@H](CCN)NC(=O)[C@H](CCN)NC(=O)[C@H](CC(C)C)NC(=O)[C@@H](Cc2ccccc2)NC(=O)[C@H](CCN)NC1=O)C(C)O (stereo partly drawn) [Example 2, Sulphate Salt] (X1-[Thr(3ξ)][Dab][Dab][Dab][dF]L[Dab][Dab][Thr(3ξ)]; lactam 3-C)", "tested.target": "P. aeruginosa ATCC10145", "MIC, micrograms/mL": 1}
{"compound": "CC(C)C[C@@H]1NC(=O)[C@@H](Cc2ccccc2)NC(=O)[C@H](CCN)NC(=O)[C@@H](NC(=O)[C@H](CCN)NC(=O)[C@@H](NC(=O)CN)C(C)O)CCNC(=O)[C@H](C(C)O)NC(=O)[C@H](CCN)NC(=O)[C@H](CCN)NC1=O (stereo partly drawn) [Example 3, Sulphate Salt] (H-G[Thr(3ξ)][Dab][Dab][Dab][dF]L[Dab][Dab][Thr(3ξ)]; lactam 4-C)", "tested.target": "P. aeruginosa ATCC10145", "MIC, micrograms/mL": 0.25}

For the next question, use this compound.
The compound listed as CC(C)C[C@@H]1NC(=O)[C@@H](Cc2ccccc2)NC(=O)[C@H](CCN)NC(=O)[C@@H](NC(=O)[C@H](CCN)NC(=O)[C@@H](NC(=O)CCCN)[C@@H](C)O)CCNC(=O)[C@H]([C@@H](C)O)NC(=O)[C@H](CCN)NC(=O)[C@H](CCN)NC1=O [Example 6, Sulphate Salt] (H-[GABA]T[Dab][Dab][Dab][dF]L[Dab][Dab]T; lactam 4-C) has a reported MIC of 0.25
